Consider the following IC50 values measured on HIV integrase (Human immunodeficiency virus type 1 group M subtype B).
quantity-kind: IC50

1. CN(Cc1ccccc1)S(=O)(=O)N(C)c1c2c(c(O)c3ncccc13)C(=O)N(Cc1ccc(F)cc1)C2 [Compound 135] = 60 to 1000 nM
2. CN(c1c2c(c(O)c3ncccc13)C(=O)N(Cc1cc(F)ccc1F)C2)S(C)(=O)=O [Compound 191] = 60 to 1000 nM
3. CN(c1c2c(c(O)c3ncccc13)C(=O)N(Cc1ccc(F)cc1)C2)S(=O)(=O)CCN1CCCCC1 [Compound 162] = 60 to 1000 nM
4. CN(c1c2c(c(O)c3ncccc13)C(=O)N(Cc1ccc(F)cc1)C2O)S(C)(=O)=O (single isomer, unassigned) [Compound 166] = < 60 nM
